Biological target: T1, ETS1 (p51) (human, UniProt P14921 1-441)
T1 sequence: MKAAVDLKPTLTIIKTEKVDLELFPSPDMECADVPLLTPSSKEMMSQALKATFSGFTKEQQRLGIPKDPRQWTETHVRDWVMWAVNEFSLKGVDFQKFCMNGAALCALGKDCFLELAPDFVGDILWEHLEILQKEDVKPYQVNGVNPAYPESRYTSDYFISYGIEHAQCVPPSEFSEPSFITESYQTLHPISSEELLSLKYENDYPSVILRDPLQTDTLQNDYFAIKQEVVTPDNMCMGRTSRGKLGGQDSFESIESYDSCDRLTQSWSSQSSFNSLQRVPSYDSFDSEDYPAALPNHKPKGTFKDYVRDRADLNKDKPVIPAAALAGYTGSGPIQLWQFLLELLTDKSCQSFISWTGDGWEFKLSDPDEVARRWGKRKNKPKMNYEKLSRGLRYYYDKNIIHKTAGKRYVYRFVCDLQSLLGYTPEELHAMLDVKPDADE
Test: EMSA; Protein 3-fold dilutions with 1e-11 (M) 32P-dsDNA, 30 min on ice, 6% polyacrylamide gel; binding buffer as in earlier paper (not given); protein dialysis buffer 10 mM Tris pH 7.9, 0.5 mM EDTA, 50 mM KCl, 1 mM DTT, 10% glycerol
Conditions: protein: recombinant; tags: N-terminal 6xHis (pET28a); label: 32P; (only one strand given)
readout_type: Kd (nM)

{"columns": ["binder", "readout_type", "readout_number"],
 "data": [
  ["ETS consensus CCGGAAGT (dsDNA) DNA 1: GGCCAAGCCGGAAGTGTGTGGTAAACACTTT DNA 2: AAAGTGTTTACCACACACTTCCGGCTTGGCC", "Kd", 1.7]
]}

Data provenance is paper PMC2787013.
